Molecular target: CD28 (Homo sapiens, UniProt P10747)
Assay: Flow binding to Jurkat/IL2 reporter cells (CD28)
Parameters: host or cells: Jurkat cells expressing an IL-2-luciferase reporter
Conditions: Table E10; 33.3 nM; relative to CD80 WT IgV-Fc
Exercise: for every item that follows, state its recorded CD28 Fold change to WT CD80.
Write the number on its own, no unit after it.

Which measured CD28 Fold change to WT CD80 value corresponds to V22A/E35D/M47L/A71G (protein) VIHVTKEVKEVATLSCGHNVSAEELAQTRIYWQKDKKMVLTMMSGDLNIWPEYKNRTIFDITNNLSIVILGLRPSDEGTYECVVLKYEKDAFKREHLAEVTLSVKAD ? 15.0

Then E35D/M47I/N48K/I61F (protein) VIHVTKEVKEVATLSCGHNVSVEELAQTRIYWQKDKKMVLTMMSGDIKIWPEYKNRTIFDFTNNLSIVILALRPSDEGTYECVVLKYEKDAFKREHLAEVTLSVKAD ? 12.4

And what about the molecule E35D/T41S/N48T (protein) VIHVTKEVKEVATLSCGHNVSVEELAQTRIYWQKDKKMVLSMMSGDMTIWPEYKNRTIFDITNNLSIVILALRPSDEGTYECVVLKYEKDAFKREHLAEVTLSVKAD ? 1.1

Also Q27H/E35D/M47I (protein) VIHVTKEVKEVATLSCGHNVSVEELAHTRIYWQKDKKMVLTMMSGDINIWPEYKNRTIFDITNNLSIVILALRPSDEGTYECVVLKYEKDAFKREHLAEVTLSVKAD , if possible. 11.5
